meta.source: ChEMBL document CHEMBL5036378

Target: Interleukin-1 receptor-associated kinase 4 (Homo sapiens, UniProt Q9NWZ3)
Sequence (Q9NWZ3 whole entry): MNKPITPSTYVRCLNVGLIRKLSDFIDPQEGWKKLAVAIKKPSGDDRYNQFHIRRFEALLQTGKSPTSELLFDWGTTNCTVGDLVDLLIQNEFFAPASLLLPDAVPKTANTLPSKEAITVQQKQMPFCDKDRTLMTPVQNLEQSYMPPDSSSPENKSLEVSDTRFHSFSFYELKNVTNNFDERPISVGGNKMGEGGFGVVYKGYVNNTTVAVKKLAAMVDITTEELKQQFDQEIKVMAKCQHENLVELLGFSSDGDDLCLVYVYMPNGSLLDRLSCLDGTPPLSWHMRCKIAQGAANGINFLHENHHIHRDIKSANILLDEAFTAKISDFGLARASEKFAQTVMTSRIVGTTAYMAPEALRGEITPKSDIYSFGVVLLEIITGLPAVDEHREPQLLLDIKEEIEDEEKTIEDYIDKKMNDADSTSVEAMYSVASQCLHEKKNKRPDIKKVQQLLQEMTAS
endpoint-name: IC50 (µM)

{"smiles-representation": "NC(=O)[C@@H]1[C@H](Nc2nc(Nc3cccc(C(=O)N4CCCC4)c3)ncc2-c2ccsc2)[C@H]2C=C[C@@H]1C2", "IC50 [µM]": 0.005}

a. CN1CCN(c2ccc(Nc3ncc(-c4cccc(F)c4)c(N[C@H]4[C@@H](C(N)=O)[C@@H]5C=C[C@H]4C5)n3)cn2)CC1
b. NC(=O)[C@@H]1[C@H](Nc2nc(Nc3cccc(C(=O)N4CCCC4)c3)ncc2-c2ccccc2F)[C@H]2C=C[C@@H]1C2
Please indicate which has the smaller reported IC50: a , or b . Let me know the label of the one you choose.
b
